FYI, the data here is from ChEMBL document CHEMBL1144698.

EXPERIMENTAL_TARGET: UniProt P02768
TEST_SUMMARY: Binding affinity to 100 uM human serum albumin at 10 uM by PAMPA method
Type: ADME

>  <MOLECULE>
CC(C)NCC(O)COc1cccc2ccccc12 (stereo unspecified) [PROPRANOLOL]

>  <Kd>
661 µM

$$$$

---

EXPERIMENTAL_TARGET: Albumin (Homo sapiens, UniProt P02768)
Sequence (P02768 whole entry): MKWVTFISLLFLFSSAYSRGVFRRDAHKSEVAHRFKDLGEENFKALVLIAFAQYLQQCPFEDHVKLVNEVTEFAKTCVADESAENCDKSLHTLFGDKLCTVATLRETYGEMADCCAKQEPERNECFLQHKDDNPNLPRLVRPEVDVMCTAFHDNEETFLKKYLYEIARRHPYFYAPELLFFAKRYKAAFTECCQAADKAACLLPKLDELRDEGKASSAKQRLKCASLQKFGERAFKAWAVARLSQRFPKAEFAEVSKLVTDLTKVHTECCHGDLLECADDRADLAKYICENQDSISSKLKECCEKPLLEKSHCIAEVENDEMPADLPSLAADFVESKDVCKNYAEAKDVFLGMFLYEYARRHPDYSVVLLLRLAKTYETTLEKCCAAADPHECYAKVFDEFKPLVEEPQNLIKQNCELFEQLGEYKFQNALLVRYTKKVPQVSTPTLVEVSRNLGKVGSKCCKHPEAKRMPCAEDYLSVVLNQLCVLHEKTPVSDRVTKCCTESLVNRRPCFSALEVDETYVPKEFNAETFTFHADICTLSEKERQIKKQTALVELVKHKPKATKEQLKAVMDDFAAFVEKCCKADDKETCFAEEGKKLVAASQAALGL
TEST_SUMMARY: Binding affinity to 600 uM human serum albumin at 10 uM by PAMPA method
Type: ADME
pKd: −log10 of the molar value.
READOUT_TYPE: pKd

>  <COMPOUND>
CC(C)NCC(O)COc1cccc2ccccc12 (stereo unspecified) [PROPRANOLOL]

>  <EXPERIMENTAL_TARGET>
Albumin (Homo sapiens, UniProt P02768)

>  <ASSAY_VALUE>
3.20

$$$$

---

EXPERIMENTAL_TARGET: Albumin (Homo sapiens)
TEST_SUMMARY: Binding affinity to 50 uM human serum albumin at 10 uM by PAMPA method
Format: ADME

>  <MOLECULE>
CC(C)NCC(O)COc1cccc2ccccc12 (stereo unspecified)

>  <UNITS_SYMBOL>
µM

>  <Kd>
355

$$$$
